# PROTOCOL: Aqueous solubility of compound in sodium phosphate buffer containing 1% DMSO at pH 6.8
# Assay type: physicochemical
MEASURED_METRIC: log10 of solubility (log10 of the value in µM)

{"columns": ["SUBSTANCE_SMILES", "log10 of solubility"],
 "data": [
  ["Cc1nc(C)c(-c2csc(Nc3ccc(S(=O)(=O)Nc4ccc(Cl)cc4)cn3)n2)s1", 0.65],
  ["Cc1nc(C)c(-c2csc(Nc3ccc(C#N)cn3)n2)s1", 0.23],
  ["CCOC(=O)c1ccc(Nc2nc(-c3sc(C)nc3C)cs2)nc1", 0.53],
  ["CCNC(=O)c1ccc(Nc2nc(-c3sc(C)nc3C)cs2)nc1", 0.45],
  ["Cc1nc(C)c(-c2csc(Nc3ccc(NC(=O)c4ccc(Cl)cc4)cn3)n2)s1", 0.59],
  ["Cc1nc(C)c(-c2csc(Nc3ccc(C(=O)N4C5CCC4CC(=O)C5)cn3)n2)s1", 1.67]
]}

----------
# PROTOCOL: Stability in guinea pig liver microsomes assessed as compound remaining after 30 mins in presence or absence of NADPH generating system at 37 degC
# Type: ADME, Cavia porcellus, microsome
# EXPERIMENTAL_CONDITIONS: read-out: Stability
MEASURED_METRIC: remaining at 0.5 h (%)

{"columns": ["SUBSTANCE_SMILES", "MEASURED_METRIC", "MEASUREMENT_UNITS", "VALUE_OBSERVED"],
 "data": [
  ["Cc1nc(C)c(-c2csc(Nc3ccc(C(=O)N4C5COCC4CC(=O)C5)cn3)n2)s1", "remaining at 0.5 h", "%", 84]
]}

----------
# PROTOCOL: Stability in human liver microsomes assessed as compound remaining after 30 mins in presence or absence of NADPH generating system at 37 degC
# Assay type: ADME, microsome
# EXPERIMENTAL_CONDITIONS: read-out: Stability

{"columns": ["MOLECULE", "MEASUREMENT_UNITS", "remaining at 0.5 h"],
 "data": [
  ["Cc1nc(C)c(-c2csc(Nc3ccc(C(=O)N4CCC(=O)CC4)cn3)n2)s1", "%", 1.4],
  ["Cc1nc(C)c(-c2csc(Nc3ccc(C(=O)O)cn3)n2)s1", "%", 100],
  ["Cc1nc(C)c(-c2csc(Nc3ccc(C(=O)N4C5CCC4CC(=O)C5)cn3)n2)s1", "%", 81],
  ["Cc1nc(C)c(-c2csc(Nc3ccccn3)n2)s1", "%", 1.1],
  ["COc1cccnc1Nc1nc(-c2sc(C)nc2C)cs1", "%", 30.9],
  ["Cc1nc(C)c(-c2csc(Nc3ccccc3)n2)s1", "%", 22.8],
  ["Cc1nc(C)c(-c2csc(Nc3ccncc3)n2)s1", "%", 17.8],
  ["Cc1nc(C)c(-c2csc(Nc3ccc(C(=O)N4C(C)CC(=O)CC4C)cn3)n2)s1 (stereo not given)", "%", 52.8],
  ["Cc1nc(C)c(-c2csc(Nc3ccc(C(=O)NCc4ccc(Cl)cc4)cn3)n2)s1", "%", 50.8],
  ["Cc1nc(C)c(-c2csc(Nc3ccc(Br)cc3)n2)s1", "%", 86.4],
  ["COc1cccc(Nc2nc(-c3sc(C)nc3C)cs2)n1", "%", 40],
  ["Cc1nc(C)c(-c2csc(Nc3ccc(NC(=O)c4ccc(Cl)cc4)cn3)n2)s1", "%", 65.2],
  ["Cc1nc(C)c(-c2csc(Nc3cc(C#N)ccn3)n2)s1", "%", 2.8],
  ["CCNC(=O)c1ccc(Nc2nc(-c3sc(C)nc3C)cs2)nc1", "%", 81.4],
  ["Cc1nc(C)c(-c2csc(Nc3ccc(C(=O)N4C(C)CCCC4C)cn3)n2)s1 (stereo not given)", "%", 2.1],
  ["Cc1nc(C)c(-c2csc(Nc3cccnc3)n2)s1", "%", 39.5],
  ["Cc1nc(C)c(-c2csc(Nc3ccc(S(=O)(=O)Nc4ccc(Cl)cc4)cn3)n2)s1", "%", 83.4],
  ["COc1ccc(Nc2nc(-c3sc(C)nc3C)cs2)nc1", "%", 10],
  ["Cc1nc(C)c(-c2csc(Nc3cccc(C#N)n3)n2)s1", "%", 66.4],
  ["Cc1nc(C)c(-c2csc(Nc3ccc(C(=O)NC4CCCCC4)cn3)n2)s1", "%", 55],
  ["Cc1nc(C)c(-c2csc(Nc3ccc(C(=O)N(C)c4ccc(Cl)cc4)cn3)n2)s1", "%", 53.6],
  ["Cc1nc(C)c(-c2csc(Nc3ncccc3C#N)n2)s1", "%", 1.3],
  ["Cc1nc(C)c(-c2csc(Nc3ccc(NS(=O)(=O)c4ccc(Cl)cc4)cn3)n2)s1", "%", 81.5],
  ["Cc1nc(C)c(-c2csc(Nc3ccc(C(=O)N4C5COCC4CC(=O)C5)cn3)n2)s1", "%", 100],
  ["Cc1nc(C)c(-c2csc(Nc3ccc(C#N)cn3)n2)s1", "%", 65],
  ["Cc1nc(C)c(-c2csc(Nc3ccc(C(=O)N4CCCCC4)cn3)n2)s1", "%", 74.5],
  ["COc1ccnc(Nc2nc(-c3sc(C)nc3C)cs2)c1", "%", 0.7],
  ["Cc1nc(C)c(-c2csc(Nc3ccc(C(=O)Nc4ccc(Cl)cc4)cn3)n2)s1", "%", 54.6],
  ["CCOC(=O)c1ccc(Nc2nc(-c3sc(C)nc3C)cs2)nc1", "%", 13.5],
  ["Cc1nc(C)c(-c2csc(Nc3ncccn3)n2)s1", "%", 0.3]
]}
